Biological target: HLA-A*01:01
Experiment: IEDB peptide-MHC binding, purified MHC/competitive/fluorescence; bounds were set here for any values at or beyond the usual limits of such assays
Details: source organism: Plasmodium falciparum
Recorded Endpoint: IC50 (µM)

| Seq | Limit Operator | Experimental Result |
| --- | --- | --- |
| NSILIKPEKY | ≥ | 109 |
| TLNDEYIVSY | ≥ | 213 |
| STCYGNRFNY | = | 54 |
| HLDFVIIPHY | ≥ | 118 |
| GEEDETHIY | ≥ | 261 |
| DTDSNHTPSN | = | 5.88 |
| ASDQPKQYEQ | ≥ | 126 |
| LTIIYIHLF | ≥ | 100 |
| SECDIGLIY | ≥ | 100 |
| LTPVATGNQY | = | 2.56 |
| HREHPKEYEY | = | 11.1 |
| NEDYKNVDY | = | 8.92 |
| STDPHTNSNN | ≥ | 100 |
| SIYHKSSTY | ≥ | 100 |
| FTYDSEEYY | = | 0.136 |

* * *

Target: HLA-B*07:02
Experiment: IEDB peptide-MHC binding, purified MHC/competitive/fluorescence; bounds were set here for any values at or beyond the usual limits of such assays
Conditions: source organism: Plasmodium falciparum
pIC50: −log10 of the molar value.
Recorded Endpoint: pIC50

| Seq | Recorded Endpoint | Experimental Result |
| --- | --- | --- |
| LPLKIENREY | pIC50 | ≤ 4.00 |
| LQKHGFHTM | pIC50 | ≤ 4.00 |
| FPCSLYKDEI | pIC50 | ≤ 4.00 |
| KSAFLPTGAF | pIC50 | ≤ 4.00 |
| NPQQSVGENG | pIC50 | ≤ 4.00 |
| FVLENGVCI | pIC50 | ≤ 3.55 |
| ITSDHLRQM | pIC50 | ≤ 3.74 |
| MNRTFKKMM | pIC50 | ≤ 4.00 |
| FITSDHLRQM | pIC50 | ≤ 4.00 |
| LPIKSTEEEK | pIC50 | ≤ 4.00 |
| MPKAVIGSSP | pIC50 | ≤ 3.53 |
| TIIYIHLFIL | pIC50 | 4.86 |
| MDMKNYGTNL | pIC50 | ≤ 4.00 |
| CPRKNLQNA | pIC50 | 6.31 |
| RASHTTPVL | pIC50 | 6.59 |
| NPEDRNSNTL | pIC50 | 5.57 |

* * *

Molecular target: HLA-B*44:02
Assay: IEDB peptide-MHC binding, purified MHC/competitive/fluorescence; bounds were set here for any values at or beyond the usual limits of such assays
Settings: source organism: Plasmodium falciparum
pIC50: −log10 of the molar value.

| Seq | Limit Operator | pIC50 |
| --- | --- | --- |
| IEIVERSNY | = | 5.10 |
| LEFVCSNRDF | = | 5.13 |
| KDLSDMTNI | ≤ | 4.00 |
| DEYIHKLIL | ≤ | 4.00 |
| EENYRCTQDI | ≤ | 3.17 |
| KEYNNSEITI | = | 4.96 |
| NEIDKLTFSL | ≤ | 3.48 |
| VQYFFLRPYI | ≤ | 4.00 |
| EELQITQWI | = | 4.71 |

* * *

Target: HLA-A*02:01
Experiment: IEDB peptide-MHC binding, purified MHC/competitive/fluorescence; bounds were set here for any values at or beyond the usual limits of such assays
Details: source organism: Plasmodium falciparum
pIC50: −log10 of the molar value.
Listed next: entries and their corresponding pIC50.
Recorded Endpoint: pIC50

| Seq | Experimental Result |
| --- | --- |
| FISDDKDSL | ≤ 3.47 |
| SVLNGNDNTI | ≤ 3.19 |
| KMMDEYNTKK | ≤ 3.29 |
| KRASHTTPV | ≤ 4.00 |

* * *

Overview of recorded IC50 for various sequences
Molecular target: HLA-A*03:01
Assay: IEDB peptide-MHC binding, purified MHC/competitive/fluorescence; bounds were set here for any values at or beyond the usual limits of such assays
Conditions: source organism: Plasmodium falciparum

| Seq | IC50 |
| --- | --- |
| RTFKKMMDEY | ≥ 100 µM |
| FISDDKDSLK | ≥ 697 µM |
| STCYGNRFNY | ≥ 100 µM |
| VENNFPCSLY | ≥ 85.4 µM |
| LSSYVSLPLK | 0.654 µM |
| FLDYYKHLSY | ≥ 100 µM |
| GSYIYIDTIK | ≥ 70.8 µM |
| ATCKYGFNK | 4.75 µM |
| NSIYHKSSTY | ≥ 101 µM |
| ILNNSKFNK | 0.42 µM |
| KLKYVTESLK | 3.34 µM |
| CVCTYNYYKK | 14.4 µM |
| HTKIINDKTK | ≥ 73 µM |
| KIFTFIENK | 0.467 µM |
| NVNFLQYHFK | ≥ 100 µM |
| LICGVSPYK | 0.419 µM |
| HLSYNSIYHK | 44.2 µM |
| TLNDEYIVSY | ≥ 304 µM |
| FIPSHNSFIK | ≥ 100 µM |
| KMMDEYNTKK | 8.48 µM |
| DLMNRTFKK | ≥ 100 µM |
| KVKSKCNDIK | 39.3 µM |
| RTFQKDELLK | 24.2 µM |
| PVATGNQYLK | ≥ 328 µM |
| KLNIWRTFQK | 2.5 µM |
| NSYKEWISKK | 7.37 µM |
| FVCSNRDFLK | ≥ 100 µM |
